Biological target: T1, human IL-36R extracellular domain expressed with a C-terminal myc-myc-hexahistidine tag (hIL-36R-MMH) (human, UniProt Q9HB29 20-337)
T1 construct: also called Human IL-36R-MMH; REGN2105
T1 sequence (Q9HB29 other isoform, or with tags, fused parts or gaps limits assumed): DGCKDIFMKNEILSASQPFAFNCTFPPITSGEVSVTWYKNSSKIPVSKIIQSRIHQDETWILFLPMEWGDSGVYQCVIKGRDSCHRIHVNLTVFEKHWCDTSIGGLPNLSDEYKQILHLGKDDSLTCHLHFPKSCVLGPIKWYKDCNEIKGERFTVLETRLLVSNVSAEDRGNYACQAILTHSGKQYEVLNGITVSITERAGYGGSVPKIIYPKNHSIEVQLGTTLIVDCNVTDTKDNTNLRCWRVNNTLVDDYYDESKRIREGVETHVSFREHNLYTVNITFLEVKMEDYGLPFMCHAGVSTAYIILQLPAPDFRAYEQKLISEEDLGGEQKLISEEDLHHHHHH
Assay: SPR Biacore T200, mAb captured on anti-hFc, 25C, PBS-T pH 6.0 running buffer
Each entry below carries its reported t1/2.
The reply should contain only the number, in min.

Solved entries (count: 5):
BINDER: H4H14708P2 (antibody, human IgG4 S228P, kappa, V domains shown, Fully human anti-IL-36R antibody) VH: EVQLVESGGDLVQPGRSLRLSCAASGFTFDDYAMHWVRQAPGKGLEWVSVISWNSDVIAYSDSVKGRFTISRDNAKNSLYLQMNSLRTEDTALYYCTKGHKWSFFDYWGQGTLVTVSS VL: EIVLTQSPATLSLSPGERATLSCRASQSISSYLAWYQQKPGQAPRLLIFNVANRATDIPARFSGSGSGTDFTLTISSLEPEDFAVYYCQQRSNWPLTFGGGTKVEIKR
t1/2 (min): 7
//
BINDER: H4H14700P2 (antibody, human IgG4 S228P, kappa, V domains shown, Fully human anti-IL-36R antibody) VH: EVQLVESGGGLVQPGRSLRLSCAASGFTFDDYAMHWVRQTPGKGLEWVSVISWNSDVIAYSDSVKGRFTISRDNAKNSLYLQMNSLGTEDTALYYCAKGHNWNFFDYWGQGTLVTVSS VL: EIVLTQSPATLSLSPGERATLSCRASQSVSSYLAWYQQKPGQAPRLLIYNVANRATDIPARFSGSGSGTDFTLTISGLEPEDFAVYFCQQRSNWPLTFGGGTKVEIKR
t1/2 (min): 7
//
BINDER: H4H14699P2 (antibody, human IgG4 S228P, kappa, V domains shown, Fully human anti-IL-36R antibody) VH: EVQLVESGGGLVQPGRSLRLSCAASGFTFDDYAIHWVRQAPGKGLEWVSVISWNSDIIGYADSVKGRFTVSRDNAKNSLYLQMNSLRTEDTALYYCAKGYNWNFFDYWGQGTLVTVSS VL: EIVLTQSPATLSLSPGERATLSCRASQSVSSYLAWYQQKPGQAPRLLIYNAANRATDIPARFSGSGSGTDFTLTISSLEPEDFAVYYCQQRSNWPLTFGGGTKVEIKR
t1/2 (min): 4
//
BINDER: H4H14709P (antibody, human IgG4 S228P, kappa, V domains shown, Fully human anti-IL-36R antibody) VH: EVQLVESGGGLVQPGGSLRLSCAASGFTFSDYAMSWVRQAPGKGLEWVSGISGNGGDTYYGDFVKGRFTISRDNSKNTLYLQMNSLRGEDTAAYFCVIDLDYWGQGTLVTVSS VL: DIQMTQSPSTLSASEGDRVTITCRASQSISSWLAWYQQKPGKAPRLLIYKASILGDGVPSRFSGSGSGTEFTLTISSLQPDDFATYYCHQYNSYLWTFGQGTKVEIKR
t1/2 (min): 14
//
BINDER: H4H14731P (antibody, human IgG4 S228P, kappa, V domains shown, Fully human anti-IL-36R antibody) VH: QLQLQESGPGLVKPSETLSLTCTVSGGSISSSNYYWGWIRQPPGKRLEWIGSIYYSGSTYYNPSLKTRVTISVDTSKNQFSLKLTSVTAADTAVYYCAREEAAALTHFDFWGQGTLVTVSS VL: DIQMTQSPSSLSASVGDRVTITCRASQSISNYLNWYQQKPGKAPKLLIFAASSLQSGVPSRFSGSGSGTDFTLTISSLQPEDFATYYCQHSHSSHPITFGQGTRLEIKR
t1/2 (min): 17

In: Which t1/2 is reported for this binder? H4H14757P (antibody, human IgG4 S228P, kappa, V domains shown, Fully human anti-IL-36R antibody) VH: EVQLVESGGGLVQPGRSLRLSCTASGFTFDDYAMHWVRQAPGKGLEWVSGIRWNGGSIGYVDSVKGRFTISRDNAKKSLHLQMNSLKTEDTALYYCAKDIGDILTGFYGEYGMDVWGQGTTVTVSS VL: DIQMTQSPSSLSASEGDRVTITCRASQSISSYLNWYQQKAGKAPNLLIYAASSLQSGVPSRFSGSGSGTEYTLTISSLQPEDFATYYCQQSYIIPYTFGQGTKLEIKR
Out: 13

In: Try this binder too: H4H14758P (antibody, human IgG4 S228P, kappa, V domains shown, Fully human anti-IL-36R antibody) VH: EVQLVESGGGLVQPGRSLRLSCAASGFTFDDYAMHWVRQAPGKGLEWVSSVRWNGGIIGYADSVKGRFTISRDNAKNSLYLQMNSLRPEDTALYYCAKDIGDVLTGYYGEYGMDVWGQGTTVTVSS VL: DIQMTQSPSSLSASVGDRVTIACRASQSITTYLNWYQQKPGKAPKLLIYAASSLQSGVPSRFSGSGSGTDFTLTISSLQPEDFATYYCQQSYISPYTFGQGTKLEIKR
Out: 6
